Every entry's value here was drawn from PubChem BioAssay AID2060891.

Test system: K98450-129-R-PDC complex spheroid growth, percent test/control;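 further: luminescence used as a proxy for viable cell amount; spheroids exposed to agents for seven days before the viability readout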
Test: Anticancer human tumor K98450-129-R-PDC patient-derived colon adenocarcinoma cell line growth inhibition [RAS]; active means viability on the fitted dose curve at most 10% of control; inactive means the rest
Conditions: second compound 0.3 µM; first compound 1 µM
Possible outcomes: 1 (yes) = active, 0 (no) = inactive

molecule: CCN1CCN(Cc2ccc(Nc3ncc(F)c(-c4cc(F)c5nc(C)n(C(C)C)c5c4)n3)nc2)CC1 + CCn1c(-c2cccnc2C(C)OC)c2c3cc(ccc31)N1CCOC(CC(NC(=O)C(C(C)C)N(C)C(=O)C3(F)CCN(C(=O)C#CC(C)(C)N(C)C)CC3)C(=O)N3CCCC(N3)C(=O)OCC(C)(C)C2)C1
cat: 0 (no)
--
molecule: NC1c2ccccc2OC12CCN(c1cnc3c(N4CCCc5ncccc54)n[nH]c3n1)CC2 (configuration not stated) + CCn1c(-c2cc(N3CCN(C)CC3)cnc2C(C)OC)c2c3cc(ccc31)-c1csc(n1)CC(NC(=O)C1CC1C)C(=O)N1CCCC(N1)C(=O)OCC(C)(C)C2
cat: 1 (yes)
--
molecule: CCC(CC)c1cc(NC2CCC(N)C2)n2nccc2n1 (configuration not stated) + CCn1c(-c2cc(N3CCN(C)CC3)cnc2C(C)OC)c2c3cc(ccc31)-c1csc(n1)CC(NC(=O)C1CC1C)C(=O)N1CCCC(N1)C(=O)OCC(C)(C)C2
cat: 0 (no)
--
molecule: C[C@@H](NC(=O)c1ncnc(N)c1Cl)c1ncc(C(=O)Nc2cc(C(F)(F)F)c(Cl)cn2)s1 + CCn1c(-c2cc(N3CCN(C)CC3)cnc2C(C)OC)c2c3cc(ccc31)-c1csc(n1)CC(NC(=O)C1CC1C)C(=O)N1CCCC(N1)C(=O)OCC(C)(C)C2
cat: 0 (no)
--
molecule: O=C(c1ccc(F)c(F)c1Nc1ccc(I)cc1F)N1CC(O)([C@@H]2CCCCN2)C1 + CCn1c(-c2cccnc2C(C)OC)c2c3cc(ccc31)N1CCOC(CC(NC(=O)C(C(C)C)N(C)C(=O)C3(F)CCN(C(=O)C#CC(C)(C)N(C)C)CC3)C(=O)N3CCCC(N3)C(=O)OCC(C)(C)C2)C1
cat: 1 (yes)
--
molecule: C=CC(=O)N1CCN(c2nc(OCC3CCCN3C)nc3c(F)c(-c4nc(N)cc(C)c4C(F)(F)F)c(Cl)cc23)C(C)C1 (configuration not stated) + CCn1c(-c2cc(N3CCN(C)CC3)cnc2C(C)OC)c2c3cc(ccc31)-c1csc(n1)CC(NC(=O)C1CC1C)C(=O)N1CCCC(N1)C(=O)OCC(C)(C)C2
cat: 0 (no)
--
molecule: CC1(O)CCCC1n1c(=O)c(C(F)F)cc2cnc(NC3CCN(S(C)(=O)=O)CC3)nc21 (configuration not stated) + CCn1c(-c2cc(N3CCN(C)CC3)cnc2C(C)OC)c2c3cc(ccc31)-c1csc(n1)CC(NC(=O)C1CC1C)C(=O)N1CCCC(N1)C(=O)OCC(C)(C)C2
cat: 0 (no)
